biological target: porcine pancreatic amylase enzyme (Sus scrofa); construct: purchased Frutarom (UK); assay: α-Amylase inhibitory activity (DNSA method); format: biochemical; conditions: five concentrations 1, 10, 50, 100, 500 µg/ml; acarbose positive control
Sequence (P00690 16-511): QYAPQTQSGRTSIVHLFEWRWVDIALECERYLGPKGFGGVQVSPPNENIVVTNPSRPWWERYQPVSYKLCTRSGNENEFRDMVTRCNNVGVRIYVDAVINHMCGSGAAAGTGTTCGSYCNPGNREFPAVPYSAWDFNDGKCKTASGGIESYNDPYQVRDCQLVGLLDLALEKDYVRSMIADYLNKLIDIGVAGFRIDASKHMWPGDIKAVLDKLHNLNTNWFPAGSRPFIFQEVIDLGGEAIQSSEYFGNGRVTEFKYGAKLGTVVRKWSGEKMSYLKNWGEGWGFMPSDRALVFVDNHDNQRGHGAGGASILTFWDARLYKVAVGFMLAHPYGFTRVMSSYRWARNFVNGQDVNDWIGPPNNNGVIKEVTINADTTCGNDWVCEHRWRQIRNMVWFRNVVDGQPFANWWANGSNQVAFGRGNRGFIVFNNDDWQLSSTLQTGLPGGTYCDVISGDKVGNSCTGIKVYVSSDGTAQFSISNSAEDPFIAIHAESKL
For each of the molecules below, state its IC50 (µg/ml) α-amylase.
Report as a plain number; the unit µg/mL is understood.

Challenge: Name the reported IC50 (µg/ml) α-amylase value associated with the molecule "O=C(O)Cc1cc2c(cc1C(=O)c1cccc(Cl)c1)OCO2"
Response given: 1.25

Challenge: Name the reported IC50 (µg/ml) α-amylase value associated with the molecule "O=C(O)Cc1cc2c(cc1C(=O)c1ccccc1)OCO2"
Response given: 4.12

Challenge: Name the reported IC50 (µg/ml) α-amylase value associated with the molecule "O=C(O)Cc1cc2c(cc1C(=O)c1ccccc1Cl)OCO2"
Response given: 8.88

Challenge: Name the reported IC50 (µg/ml) α-amylase value associated with the molecule "COC(=O)Cc1cc2c(cc1C(=O)c1ccccc1I)OCO2"
Response given: 39.85

Challenge: Name the reported IC50 (µg/ml) α-amylase value associated with the molecule "COC(=O)Cc1cc2c(cc1C(=O)c1cccc(I)c1)OCO2"
Response given: 16.36

* * *

Biological target: UniProt:P00591
Sequence (P00591 1-450): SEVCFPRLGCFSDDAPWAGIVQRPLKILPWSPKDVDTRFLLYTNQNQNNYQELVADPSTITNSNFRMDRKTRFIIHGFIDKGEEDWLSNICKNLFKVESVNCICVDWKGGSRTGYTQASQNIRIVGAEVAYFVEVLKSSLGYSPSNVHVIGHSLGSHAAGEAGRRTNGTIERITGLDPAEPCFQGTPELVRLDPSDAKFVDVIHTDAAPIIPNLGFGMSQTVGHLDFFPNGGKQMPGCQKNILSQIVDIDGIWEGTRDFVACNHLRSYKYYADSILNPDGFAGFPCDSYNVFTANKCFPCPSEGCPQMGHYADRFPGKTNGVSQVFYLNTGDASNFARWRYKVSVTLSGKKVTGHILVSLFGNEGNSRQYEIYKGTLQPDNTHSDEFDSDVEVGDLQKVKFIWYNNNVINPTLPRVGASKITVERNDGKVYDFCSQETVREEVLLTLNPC
Test: Anti-lipase activity (PNPB hydrolysis)
Assay type: biochemical
Conditions: five dilutions 40, 100, 200, 300, 400 µg/ml; orlistat positive control
For each of the molecules below, state its IC50 (µg/ml) Lipase.
Report as a plain number; the unit µg/mL is understood.

Challenge: Name the reported IC50 (µg/ml) Lipase value associated with the molecule "O=C(O)Cc1cc2c(cc1C(=O)c1ccccc1)OCO2"
Response given: 213.82

Challenge: Name the reported IC50 (µg/ml) Lipase value associated with the molecule "O=C(O)Cc1cc2c(cc1C(=O)c1cccc(I)c1)OCO2"
Response given: 201.2

Challenge: Name the reported IC50 (µg/ml) Lipase value associated with the molecule "O=C(O)Cc1cc2c(cc1C(=O)c1cccc(Br)c1)OCO2"
Response given: 225.8

* * *

molecular target: porcine pancreatic amylase enzyme (Sus scrofa); construct: purchased Frutarom (UK); assay: α-Amylase inhibitory activity (DNSA method); assay type: biochemical; conditions: five concentrations 1, 10, 50, 100, 500 µg/ml; acarbose positive control
# note: exactly 5 µg/mL is not below, so it is 0 (no); use 1 (yes) for IC50 (µg/ml) α-amylase strictly under it

Challenge: hey, is IC50 (µg/ml) α-amylase for O=C(O)Cc1cc2c(cc1C(=O)c1ccccc1I)OCO2 [4d] lower than 5 µg/mL or not?
Response given: 0 (no)

Challenge: hey, is IC50 (µg/ml) α-amylase for COC(=O)Cc1cc2c(cc1C(=O)c1cccc(Br)c1)OCO2 [3f] lower than 5 µg/mL or not?
Response given: 0 (no)

Challenge: hey, is IC50 (µg/ml) α-amylase for O=C(O)Cc1cc2c(cc1C(=O)c1cccc(I)c1)OCO2 [4e] lower than 5 µg/mL or not?
Response given: 1 (yes)

Challenge: hey, is IC50 (µg/ml) α-amylase for COC(=O)Cc1cc2c(cc1C(=O)c1ccccc1Br)OCO2 [3e] lower than 5 µg/mL or not?
Response given: 1 (yes)

Challenge: hey, is IC50 (µg/ml) α-amylase for COC(=O)Cc1cc2c(cc1C(=O)c1ccccc1)OCO2 [3b] lower than 5 µg/mL or not?
Response given: 0 (no)

FYI, the data here is from paper PMC8220737.
